Target: T1, soluble Macaca fascicularis CTLA-4 expressed with a C-terminal myc-myc-polyhistidine tag (Macaca fascicularis)
T1 construct: soluble protein; also called mf CTLA-4.mmh; mfCTLA4.mmh
T1 chain: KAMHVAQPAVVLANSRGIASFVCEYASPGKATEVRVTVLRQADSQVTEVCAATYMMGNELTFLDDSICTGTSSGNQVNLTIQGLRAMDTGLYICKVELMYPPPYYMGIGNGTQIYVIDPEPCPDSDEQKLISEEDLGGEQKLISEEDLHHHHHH
Test: SPR, mAb capture, 25 C
PARAMETER: t1/2 (min)
Answer format: numeric, min implied, no suffix.

Report t1/2, nothing else, for this binder: H1H19284P (antibody, human IgG1, V domains shown) VH: EVQLVESGGGLVQPGGSLRLSCAASGFTLSNYVMTWVRQAPGKGLEWVSAISGRGGNSYYADSVKGRFSISRDHSKNTLYLQVNSLRAEDTAVYYCAKAERGYSYGFNWFDPWGQGTLVTVSS VL: DIQMTQSPSSVSASAGDRVTITCRASQGISSWLAWYQQKPGKAPKLLIYAASSLQSGVPSRFSGSGSGTDFTLTISSLQPEDFASYYCQQGNNFPLTFGGGTKVEIK 37.9

Report t1/2, nothing else, for this binder: H1H19281P (antibody, human IgG1, V domains shown) VH: QVQLVESGGGVVQPGRSLRLSCAASGLTFSYYGMHWVRQAPGKGLEWVAVISYDGSNKYYADSVKGRFTISRDNSKNTLYLQMNSLRAEDAAVYYCAKDLGGDDYYGMDVWGQGTTVTVSS VL: EIVLTQSPGTLSLSPGERATLSCRASQSVSRTYLAWYQQKPGQAPRLLIYGAFSRATGIPDRFSGSGSGTDFTLTISRLEPEDFAVYYCQQYGSSPYTFGQGTKLEIK 11.5

Report t1/2, nothing else, for this binder: H1H19313P (antibody, human IgG1, V domains shown) VH: QITLKESGPTLVKPTQTLTLTCTFSGFSLSTSGVGVGWIRQPPGVALEWLALIYWNDDKRFSPSLKSRLTITKDTSKNQVVLTMTNMDPVDTATYYCAHRRLGLYYFDYWGQGTLVTVSS VL: DIQLTQSPSFLSASVGDRVTITCWASQGISSYLAWYQQKPGKAPKLLIYAASTLQSGVPSRFSGSGSGTEFTLTISSLQPEDFATYYCQQVHIYPFTFGPGTKVDIK 24.9

Report t1/2, nothing else, for this binder: H1H19291P (antibody, human IgG1, V domains shown) VH: QVQLVESGGGVVQPGRSLRLSCAASGFTFSTYGMHWVRQAPGKGLEWVTVIWYDGNNKYYADSVKGRFTISRDNSKNTLYLQMNNLRAEDTALYYCARGGGRLSYYHDYWGQGTLVTVSS VL: DIQMTQSPSSLSASVGDRVTITCRASQSISTFLNWYQQKPGKAPNLLIYGTSSLQSGVPSRFSGSGSGTDFTLTISSLQPEDFAAYYCQQTYSTPFTFGPGTKVDIK 9.6

Report t1/2, nothing else, for this binder: H1H19264P (antibody, human IgG1, V domains shown) VH: QVQLVQSGAEVKKPGASVKVSCKASDYTFTSYGISWVRQAPGQGLEWMGWISVYNGNINYAQKFKGRVTMTTDTSTSTAYMELRSLRSDDMAVYYCARVTQFGMDVWGQGTTVTVSS VL: DIQMTQSPSSLSASVGDRVTITCRASQSISSNLNWYQQNPGKAPKLLIYTTSSLQGGVPSRFSGSGSGTDFTLTISSLQPEDFATYYCQQSFRTPFTFGPGTKVDIK 11.6
